- Test system: Italian ryegrass (Lolium multiflorum)
- method: Test A postemergence, visual plant response rating
- Type: in vivo
- test-conditions: 500 g ai/ha, postemergence; 0 is no effect, 100 is complete control
property-measured: Ryegrass, Italian plant response rating (0 to 100 scale)

CON=C(c1cccc(Cl)c1)c1c(O)c(C)nn(C2CC2)c1=O (mixture of isomers) [Compound 33] = 60
CO/N=C(/c1c(O)c(C)nn(C)c1=O)c1ccc(OC)c2ccccc12 [Compound 142] = 70
CO/N=C(/c1cccc(C)c1)c1c(O)c(C2CC2)nn(C)c1=O [Compound 28] = 10
CO/N=C(\c1sccc1C)c1c(O)c(C)nn(C)c1=O [Compound 42] = 70
CCO/N=C(/c1cccc(Cl)c1)c1c(O)c(C)nn(C)c1=O [Compound 9] = 60
CON=C(c1cc(Cl)ccc1Cl)c1c(O)c(C)nn(C)c1=O [Compound 98] = 80
CO/N=C(\c1ccccc1C#N)c1c(O)c(C)nn(C)c1=O [Compound 76] = 30
CO/N=C(\c1cccc(Cl)c1)c1c(O)c(C)nn(C)c1=O [Compound 10] = 90
CON=C(c1cccc(C#N)c1)c1c(O)c(C)nn(C)c1=O [Compound 57] = 20
CCO/N=C(/c1ccccc1C)c1c(O)c(C)nn(C)c1=O [Compound 15] = 80

As a next step, examine the compound that follows.
Per the records, this compound ( CCO/N=C(/c1cccc(C)c1C)c1c(O)c(C)nn(C)c1=O [Compound 24] ) has Ryegrass, Italian plant response rating (0 to 100 scale) equal to 40

----------
- Tested on: blackgrass (Alopecurus myosuroides)
- method: Test C postemergence, visual plant response rating
- Type: in vivo
- test-conditions: Postemergence, 31 g ai/ha
Listing of entries alongside the reported Blackgrass plant response rating (0 to 100 scale).
Provide a numeric answer; units are not to be included.

Reference set, count: 5
Cc1nn(C)c(=O)c(/C(=N/OC(C)C)c2cc(Cl)cc(Cl)c2F)c1O = 80
CCO/N=C(/c1c(O)c(C)nn(C)c1=O)c1cccc2cc(Cl)ccc12 = 40
CO/N=C(/c1c(O)c(Cl)nn(C)c1=O)c1ccc(F)c2ccccc12 = 30
C#CCO/N=C(/c1cccc(/C=C/Cl)c1)c1c(O)c(C)nn(C)c1=O = 20
C#CCO/N=C(\c1cc(Cl)cc(Br)c1)c1c(O)c(C)nn(C)c1=O = 0

Per the records, this molecule ( `C#CCO/N=C(/c1ccc(F)c(Cl)c1)c1c(O)c(C)nn(C)c1=O` ) has Blackgrass plant response rating (0 to 100 scale) equal to 50

Per the records, this molecule ( `CC(C)O/N=C(/c1c(O)c(Cl)nn(C)c1=O)c1cc(Br)cc2ccccc12` ) has Blackgrass plant response rating (0 to 100 scale) equal to 20

Per the records, this molecule ( `CON=C(c1cc(Cl)cc(Cl)c1)c1c(O)c(C)nn(C)c1=O` ) has Blackgrass plant response rating (0 to 100 scale) equal to 10

Per the records, this molecule ( `CCO/N=C(/c1c(O)cnn(C)c1=O)c1ccc(F)c2ccccc12` ) has Blackgrass plant response rating (0 to 100 scale) equal to 0

----------
- Tested on: blackgrass (Alopecurus myosuroides)
- method: Test A postemergence, visual plant response rating
- Assay type: in vivo
- test-conditions: 500 g ai/ha, postemergence; 0 is no effect, 100 is complete control
Listing of entries alongside the reported Blackgrass plant response rating (0 to 100 scale).

Reference set, count: 4
CON=C(c1sccc1C)c1c(O)c(C)nn(C)c1=O = 10
CCCc1ccccc1/C(=N\OC)c1c(O)c(C)nn(C)c1=O = 70
C=CCc1ccccc1C(=NOC)c1c(O)c(C)nn(C)c1=O = 70
CO/N=C(\c1c(O)c(C)nn(C)c1=O)c1cc(Br)cc2ccccc12 = 100

As a next step, examine the compound that follows.
Per the records, this compound ( `CO/N=C(\c1cccc(C)c1C)c1c(O)c(C)nn(C)c1=O` ) has Blackgrass plant response rating (0 to 100 scale) equal to 40

----------
Listing of entries alongside the reported Galium plant response rating (0 to 100 scale).
- System: galium (catchweed bedstraw, Galium aparine)
- method: Test C postemergence, visual plant response rating
- Assay type: in vivo
- test-conditions: Postemergence, 31 g ai/ha
Provide a numeric answer; units are not to be included.

Reference set, count: 5
Cc1nn(C)c(=O)c(C(=NOCC2CC2)c2cc(Cl)cc(Cl)c2Cl)c1O = 70
CON=C(c1cc(Cl)cc(Cl)c1F)c1c(O)c(C)nn(C)c1=O = 100
C#CCO/N=C(/c1cccc(/C=C/Cl)c1)c1c(O)c(C)nn(C)c1=O = 30
CO/N=C(/c1cc(Cl)c(F)c(Cl)c1)c1c(O)c(C)nn(C)c1=O = 70
CON=C(c1cccc(OC(F)F)c1)c1c(O)c(C)nn(C)c1=O = 40

Per the records, this compound ( `Cc1nn(C)c(=O)c(/C(=N\OC(C)C)c2cccc3cc(Cl)ccc23)c1O` ) has Galium plant response rating (0 to 100 scale) equal to 90

Per the records, this compound ( `CO/N=C(/c1cc(C)cc(Cl)c1)c1c(O)c(C)nn(C)c1=O` ) has Galium plant response rating (0 to 100 scale) equal to 90

Per the records, this compound ( CCON=C(c1cc(Cl)cc(Br)c1)c1c(O)c(C)nn(C)c1=O [Compound 181] ) has Galium plant response rating (0 to 100 scale) equal to 100

Per the records, this compound ( `CO/N=C(\c1cc(Cl)c(F)c(Cl)c1)c1c(O)c(C)nn(C)c1=O` ) has Galium plant response rating (0 to 100 scale) equal to 70

----------
- Tested on: Italian ryegrass (Lolium mutiflorum)
- method: Test C postemergence, visual plant response rating
- Format: in vivo
- test-conditions: Test C, postemergence, 125 g ai/ha
Listing of entries alongside the reported Ryegrass, Italian plant response rating (0 to 100 scale).
Provide a numeric answer; units are not to be included.

Reference set, count: 3
CC(C)O/N=C(\c1c(O)c(Cl)nn(C)c1=O)c1ccc(F)c2ccccc12 = 20
C#CCO/N=C(/c1c(O)c(C)nn(C)c1=O)c1cccc2cc(Cl)ccc12 = 90
C#CCON=C(c1cc(Cl)cc(Cl)c1Cl)c1c(O)c(C)nn(C)c1=O = 100

Per the records, this compound ( C#CCO/N=C(\c1cc(Cl)cc(Cl)c1Cl)c1c(O)c(C)nn(C)c1=O [Compound 184] ) has Ryegrass, Italian plant response rating (0 to 100 scale) equal to 80

Per the records, this compound ( CON=C(c1cc(F)cc(F)c1F)c1c(O)c(C)nn(C)c1=O [Compound 226] ) has Ryegrass, Italian plant response rating (0 to 100 scale) equal to 50

----------
- System: corn (Zea mays)
- method: Test C postemergence, visual plant response rating
- Format: in vivo
- test-conditions: Postemergence, 31 g ai/ha
property-measured: Corn plant response rating (0 to 100 scale)
Provide a numeric answer; units are not to be included.

Reference set, count: 4
CCO/N=C(\c1c(O)cnn(C)c1=O)c1ccc(F)c2ccccc12 = 0
CC(C)O/N=C(\c1c(O)c(Cl)nn(C)c1=O)c1ccc(F)c2ccccc12 = 20
C#CCO/N=C(/c1cccc(/C=C/Cl)c1)c1c(O)c(C)nn(C)c1=O = 0
Cc1nn(C)c(=O)c(C(=NOCC2CC2)c2cc(Cl)cc(Cl)c2Cl)c1O = 0

As a next step, examine the compound that follows.
Per the records, this compound ( `CO/N=C(\c1c(O)c(Cl)nn(C)c1=O)c1cc(Br)cc2ccccc12` ) has Corn plant response rating (0 to 100 scale) equal to 0

----------
Listing of entries alongside the reported Barnyardgrass plant response rating.
- Test system: barnyardgrass (Echinochloa crus-galli)
- method: Test A postemergence, visual plant response rating
- Assay type: in vivo
- test-conditions: Postemergence, 125 g ai/ha; 0 to 100 scale (0 no effect, 100 complete control)
Provide a numeric answer; units are not to be included.

Reference set, count: 5
CO/N=C(/c1c(OC(C)=O)c(Cl)nn(C)c1=O)c1cccc2ccccc12 = 20
CO/N=C(\c1sccc1C)c1c(O)c(C)nn(C)c1=O = 0
CON=C(c1c(O)c(C)nn(C)c1=O)c1ccc(Cl)c2ccccc12 = 30
CO/N=C(\c1cccc(C)c1C)c1c(O)c(C)nn(C)c1=O = 0
CO/N=C(/c1ccccc1C(C)C)c1c(O)c(C)nn(C)c1=O = 10

Per the records, this compound ( CON=C(c1cccc(Cl)c1)c1c(O)c(C)nn(CC2CC2)c1=O (mixture of isomers) ) has Barnyardgrass plant response rating equal to 0

Per the records, this compound ( `CO/N=C(\c1ccc(F)cc1C)c1c(O)c(C)nn(C)c1=O` ) has Barnyardgrass plant response rating equal to 0

----------
- Test system: wheat (Triticum aestivum)
- method: Test C postemergence, visual plant response rating
- Type: in vivo
- test-conditions: Postemergence, 31 g ai/ha
Listing of entries alongside the reported Wheat plant response rating (0 to 100 scale).
Provide a numeric answer; units are not to be included.

Per the records, this compound ( `CO/N=C(\c1cccc(Br)c1)c1c(O)c(C)nn(C)c1=O` ) has Wheat plant response rating (0 to 100 scale) equal to 0

Per the records, this compound ( `C#CCO/N=C(\c1ccc(F)c(Br)c1)c1c(O)c(C)nn(C)c1=O` ) has Wheat plant response rating (0 to 100 scale) equal to 20

Per the records, this compound ( `Cc1nn(C)c(=O)c(/C(=N/OC(C)C)c2cc(Cl)cc(Cl)c2Cl)c1O` ) has Wheat plant response rating (0 to 100 scale) equal to 50

Per the records, this compound ( `C#CCON=C(c1ccc(Cl)c(Cl)c1)c1c(O)c(C)nn(C)c1=O` ) has Wheat plant response rating (0 to 100 scale) equal to 0

Per the records, this compound ( `CO/N=C(/c1c(O)c(C)nn(C)c1=O)c1cccc2cc(Cl)ccc12` ) has Wheat plant response rating (0 to 100 scale) equal to 0

Per the records, this compound ( `CO/N=C(/c1cccc(/C=C/Cl)c1)c1c(O)c(C)nn(C)c1=O` ) has Wheat plant response rating (0 to 100 scale) equal to 0

Per the records, this compound ( `CO/N=C(/c1ccc(F)c(Cl)c1)c1c(O)c(C)nn(C)c1=O` ) has Wheat plant response rating (0 to 100 scale) equal to 0

Per the records, this compound ( `CO/N=C(\c1ccc(Cl)c(Cl)c1)c1c(O)c(C)nn(C)c1=O` ) has Wheat plant response rating (0 to 100 scale) equal to 0

Per the records, this compound ( `C#CCO/N=C(\c1ccc(Cl)c(Cl)c1)c1c(O)c(C)nn(C)c1=O` ) has Wheat plant response rating (0 to 100 scale) equal to 0

Per the records, this compound ( `CON=C(c1ccc(F)c(Br)c1)c1c(O)c(C)nn(C)c1=O` ) has Wheat plant response rating (0 to 100 scale) equal to 0

Per the records, this compound ( `CCCCON=C(c1cc(Cl)cc(Cl)c1Cl)c1c(O)c(C)nn(C)c1=O` ) has Wheat plant response rating (0 to 100 scale) equal to 0

Per the records, this compound ( `CO/N=C(/c1c(O)c(C)nn(C)c1=O)c1cc(SC)cc2ccccc12` ) has Wheat plant response rating (0 to 100 scale) equal to 0

Per the records, this compound ( `CON=C(c1cccc(OC)c1)c1c(O)c(C)nn(C)c1=O` ) has Wheat plant response rating (0 to 100 scale) equal to 0

Provenance of the data: patent US20210045385A1
